# target_desc: hTRPA1 (Homo sapiens, UniProt O75762, K186N)
# Construct: expressed in transfected cells; host or cells: HEK293/TREx (Invitrogen), induced with tetracycline
# Sequence (O75762 whole entry K186N): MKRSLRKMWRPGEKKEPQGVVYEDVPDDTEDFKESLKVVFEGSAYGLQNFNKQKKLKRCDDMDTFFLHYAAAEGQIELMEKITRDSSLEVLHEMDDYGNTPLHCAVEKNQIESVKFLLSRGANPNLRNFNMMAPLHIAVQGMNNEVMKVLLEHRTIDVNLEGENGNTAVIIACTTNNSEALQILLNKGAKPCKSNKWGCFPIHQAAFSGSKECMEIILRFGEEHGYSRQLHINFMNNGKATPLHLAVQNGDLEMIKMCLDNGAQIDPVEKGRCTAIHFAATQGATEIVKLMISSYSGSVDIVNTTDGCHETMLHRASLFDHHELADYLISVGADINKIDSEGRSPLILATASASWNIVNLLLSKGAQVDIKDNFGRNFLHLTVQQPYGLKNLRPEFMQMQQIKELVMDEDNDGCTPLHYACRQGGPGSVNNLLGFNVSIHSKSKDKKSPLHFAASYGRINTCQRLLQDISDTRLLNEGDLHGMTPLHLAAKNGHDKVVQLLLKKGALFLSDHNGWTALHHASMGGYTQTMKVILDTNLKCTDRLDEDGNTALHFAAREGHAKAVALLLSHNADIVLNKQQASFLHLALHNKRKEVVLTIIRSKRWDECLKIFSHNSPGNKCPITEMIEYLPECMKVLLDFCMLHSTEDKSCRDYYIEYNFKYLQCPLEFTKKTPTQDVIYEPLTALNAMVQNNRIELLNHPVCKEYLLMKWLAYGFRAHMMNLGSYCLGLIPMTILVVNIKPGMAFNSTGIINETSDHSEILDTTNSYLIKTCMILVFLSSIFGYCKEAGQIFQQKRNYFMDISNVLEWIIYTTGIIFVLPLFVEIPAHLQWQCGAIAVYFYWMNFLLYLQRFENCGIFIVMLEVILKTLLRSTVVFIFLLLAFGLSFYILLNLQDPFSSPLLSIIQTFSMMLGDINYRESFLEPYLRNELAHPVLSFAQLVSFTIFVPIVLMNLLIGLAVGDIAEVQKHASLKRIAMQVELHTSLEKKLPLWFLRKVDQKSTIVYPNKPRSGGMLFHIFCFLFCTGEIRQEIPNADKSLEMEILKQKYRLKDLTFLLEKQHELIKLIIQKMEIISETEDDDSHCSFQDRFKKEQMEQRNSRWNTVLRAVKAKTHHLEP
# assay_remarks: TRPA1 patch clamp (perforated patch, AITC-activated current)
# Type: cell-based
# experimental_parameters: Table 2; inward current; read-out: hTRPA1 Patch Inwd IC50
Some compounds, each annotated with its measured IC50.

Completed entries (count: 4):
compound	value_type	endpoint_value
Cn1c(=O)c2c(ncn2CC(=O)Nc2cccc(I)c2)n(C)c1=O	IC50	≤ 1 µM
Cn1c(=O)c2c(ncn2CC(=O)Nc2ccc3ccccc3c2)n(C)c1=O	IC50	> 10 µM
CC(C)c1ccc(N(C)C(=O)Cn2cnc3c2c(=O)n(C)c(=O)n3C)cc1	IC50	> 10 µM
Cc1ccc(NC(=O)C(C)n2cnc3c2c(=O)n(C)c(=O)n3C)cc1 (stereo not shown)	IC50	≤ 1 µM

Shift focus to the following entry.
QUERY: Using hTRPA1 (Homo sapiens, UniProt O75762, K186N) as the test system, report measured IC50 of Cn1c(=O)c2c(ncn2CC(=O)Nc2ccc3c(c2)OC2(CCCCC2)O3)n(C)c1=O .
RESULT: ≤ 1 µM

----------
# target_desc: hTRPV4 (Homo sapiens)
# Sequence (Q9HBA0 whole entry): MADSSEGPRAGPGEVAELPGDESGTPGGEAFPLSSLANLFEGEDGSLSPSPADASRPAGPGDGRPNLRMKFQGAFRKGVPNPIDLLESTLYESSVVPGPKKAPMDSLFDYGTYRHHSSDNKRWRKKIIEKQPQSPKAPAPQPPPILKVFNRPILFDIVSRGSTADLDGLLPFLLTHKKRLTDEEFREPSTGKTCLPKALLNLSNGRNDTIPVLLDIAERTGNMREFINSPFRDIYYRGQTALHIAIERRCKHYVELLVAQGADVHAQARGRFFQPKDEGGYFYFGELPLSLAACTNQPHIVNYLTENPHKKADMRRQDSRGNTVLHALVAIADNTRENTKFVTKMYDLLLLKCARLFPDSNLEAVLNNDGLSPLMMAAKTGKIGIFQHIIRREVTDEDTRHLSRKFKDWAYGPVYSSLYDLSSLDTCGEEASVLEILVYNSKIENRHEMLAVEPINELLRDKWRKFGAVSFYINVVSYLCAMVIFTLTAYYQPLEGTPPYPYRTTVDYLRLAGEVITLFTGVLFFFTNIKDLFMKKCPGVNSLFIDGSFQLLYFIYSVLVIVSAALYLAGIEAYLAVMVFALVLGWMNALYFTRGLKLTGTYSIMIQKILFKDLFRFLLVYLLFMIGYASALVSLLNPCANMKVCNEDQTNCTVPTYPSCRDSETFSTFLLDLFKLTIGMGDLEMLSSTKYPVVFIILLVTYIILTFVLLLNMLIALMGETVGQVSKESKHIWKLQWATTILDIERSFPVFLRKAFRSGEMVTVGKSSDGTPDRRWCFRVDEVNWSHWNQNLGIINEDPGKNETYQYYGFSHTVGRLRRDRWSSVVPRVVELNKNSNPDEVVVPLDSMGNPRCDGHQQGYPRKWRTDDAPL
# assay_remarks: hTRPV4 patch clamp selectivity
# experimental_parameters: Table 2
pIC50: −log10 of the molar value.
value_type: pIC50

CC(C)c1ccc(NC(=O)Cn2cnc3c2c(=O)n(C)c(=O)n3C)cc1 < 5.00

With those in mind, consider the next compound.
QUERY: For Cn1c(=O)c2c(ncn2CC(=O)Nc2ccc3c(c2)OC2(CCCCC2)O3)n(C)c1=O , write its pIC50.
RESULT: < 5.00

----------
# target_desc: hTRPA1 (Homo sapiens, UniProt O75762, K186N)
# Construct: expressed in transfected cells; host or cells: HEK293/TREx (Invitrogen), induced with tetracycline
# assay_remarks: High throughput Ca2+ fluorescence (Fluo4) assay, AITC stimulation
# Format: cell-based
# experimental_parameters: Table 2; read-out: hTRPA1 Fluor IC50
pIC50: −log10 of the molar value.
value_type: pIC50

Some compounds with recorded pIC50:
compound	target_desc	pIC50
COC(=O)c1ccc(C)c(NC(=O)Cn2cnc3c2c(=O)n(C)c(=O)n3C)c1 [Compound 346]	hTRPA1 (Homo sapiens, UniProt O75762, K186N)	≤ 4.52
Cc1cc(NC(=O)Cn2cnc3c2c(=O)n(C)c(=O)n3C)n(-c2ccccc2)n1 [Compound 255]	hTRPA1 (Homo sapiens, UniProt O75762, K186N)	≤ 4.70
Cc1ccc(NC(=O)NC(=O)Cn2cnc3c2c(=O)n(C)c(=O)n3C)c(C)c1 [Compound 292]	hTRPA1 (Homo sapiens, UniProt O75762, K186N)	< 5.00
Cn1c(=O)c2c(ncn2CC(=O)NCC(c2ccco2)N2CCCC2)n(C)c1=O (centres unmarked) [Compound 308]	hTRPA1 (Homo sapiens, UniProt O75762, K186N)	< 5.00
Cn1c(=O)c2c(ncn2CC(=O)Nc2ccc(N3CCCCCC3)cc2)n(C)c1=O [Compound 354]	hTRPA1 (Homo sapiens, UniProt O75762, K186N)	≥ 5.30
Cn1c(=O)c2c(ncn2CC(=O)Nc2ccc(F)c(F)c2F)n(C)c1=O [Compound 276]	hTRPA1 (Homo sapiens, UniProt O75762, K186N)	< 5.00

QUERY: Hello, please tell me recorded pIC50 for this one: CSc1cccc(NC(=O)Cn2cnc3c2c(=O)n(C)c(=O)n3C)c1 [Compound 282]
RESULT: ≥ 5.00

QUERY: Give recorded pIC50. Cn1c(=O)c2c(ncn2CC(=O)NCc2ccncc2)n(C)c1=O [Compound 242]
RESULT: < 5.00

QUERY: Fill in reported pIC50 for this entry: Cn1c(=O)c2c(ncn2CC(=O)Nc2ccc3ccccc3c2)n(C)c1=O [Compound 213]
RESULT: ≥ 5.00

QUERY: Retrieve pIC50 measured for Cn1c(=O)c2c(ncn2CC(=O)Nc2ccc(C34CC5CC(CC(C5)C3)C4)cc2)n(C)c1=O [Compound 264] and print it.
RESULT: ≥ 5.30

QUERY: Write down pIC50 measured for item Cn1c(=O)c2c(ncn2CC(=O)NCCOc2ccc(C(C)(C)C)cc2)n(C)c1=O [Compound 320]
RESULT: ≥ 5.00

QUERY: Give pIC50 for the following compound: Cn1c(=O)c2c(ncn2CC(=O)Nc2ccccc2N2CCCC2)n(C)c1=O [Compound 350]
RESULT: < 5.00

QUERY: Assign pIC50 to the following record: Cn1c(=O)c2c(ncn2CC(=O)NC2CCCCCCC2)n(C)c1=O [Compound 278]
RESULT: < 5.00

QUERY: Read off the recorded pIC50 for Cc1ccc(-c2csc(NC(=O)Cn3cnc4c3c(=O)n(C)c(=O)n4C)n2)cc1C [Compound 270]
RESULT: < 5.00

QUERY: Kindly indicate its recorded pIC50. Item: COc1ccccc1NC(=O)C(C)n1cnc2c1c(=O)n(C)c(=O)n2C (centres unmarked) [Compound 303]
RESULT: < 5.00

QUERY: Identify measured pIC50 associated with Cc1cc(C)c(NC(=O)Cn2cnc3c2c(=O)n(C)c(=O)n3C)c(C)c1 [Compound 375]
RESULT: < 5.00

QUERY: Answer with reported pIC50 of CCn1c2ccccc2c2cc(NC(=O)Cn3cnc4c3c(=O)n(C)c(=O)n4C)ccc21 [Compound 254]
RESULT: < 5.00
